Origin of the recorded values: patent US11713307B2

Reported values: pIC50 for human PD-L1 (Homo sapiens (Human), UniProt Q9NZQ7), one per item.
pIC50: −log10 of the molar value.

Answered cases to consult:
smiles.entry: COc1nc(-c2cccc(-c3cccc(NC(=O)c4cn(C)c(=O)n(C)c4=O)c3C)c2Cl)cnc1CN[C@@H]1CCOC[C@@H]1O
pIC50: > 8.00

smiles.entry: CNCc1ccc(-c2cccc(-c3cccc(NC(=O)c4cn(C)c(=O)n(C)c4=O)c3C)c2Cl)nc1OC
pIC50: > 8.00

smiles.entry: CCc1nc(-c2cccc(-c3cccc(NC(=O)c4cn(C)c(=O)n(C)c4=O)c3Cl)c2Cl)ccc1CN1CC(O)C1
pIC50: 6.00 to 8.00

Problem: // output pIC50; input COc1nc(-c2cccc(-c3cccc(NC(=O)c4cn(C)c(=O)n(C)c4=O)c3Cl)c2Cl)ccc1CN(C)C[C@@H]1CCC(=O)N1 ; system human PD-L1 (Homo sapiens (Human), UniProt Q9NZQ7)
Result: 6.00 to 8.00

Problem: Provide the reported pIC50 (system: human PD-L1 (Homo sapiens (Human), UniProt Q9NZQ7)) for COc1nc(-c2cccc(-c3cccc(NC(=O)c4cn(C)c(=O)n(C)c4=O)c3Cl)c2Cl)cnc1CN[C@@H]1CCC(=O)NC1
Sequence (Q9NZQ7 19-239): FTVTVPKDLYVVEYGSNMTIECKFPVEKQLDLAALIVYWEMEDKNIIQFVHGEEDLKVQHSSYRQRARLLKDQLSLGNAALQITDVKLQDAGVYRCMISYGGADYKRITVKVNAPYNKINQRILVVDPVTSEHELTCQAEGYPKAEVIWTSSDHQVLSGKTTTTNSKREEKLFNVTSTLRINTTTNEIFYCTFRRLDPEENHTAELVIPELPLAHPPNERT
Result: > 8.00

Problem: Lab note: record pIC50 of COc1nc(-c2cccc(-c3cccc(NC(=O)c4cn(C)c(=O)n(C)c4=O)c3Cl)c2Cl)cnc1CN[C@H]1CCOC[C@H]1O tested on human PD-L1 (Homo sapiens (Human), UniProt Q9NZQ7).
Result: > 8.00
